The origin of these recorded values is ChEMBL document CHEMBL5724914.

- PROTOCOL_TEXT: The drug is tested on Z-013 corresponding to rabbit gut metagenome with ENA study accession number: PRJEB37062 and ENA sample accession number: ERS12561813 for biotransformation under anaerobic condition. The drug concentrations were measured over 9 timepoints collected between 0 and 24 hours of incubation by liquid-chromatography-coupled mass spectrometry (LC–MS); note: call rule not given here
- STUDY_CONDITIONS: 2 µM
MEASURE: Bacterial Biotransformation

1. CCS(=O)(=O)CCn1c([N+](=O)[O-])cnc1C [TINIDAZOLE]: Compound metabolized
2. COc1cc2nc(N3CCN(C(=O)C4COc5ccccc5O4)CC3)nc(N)c2cc1OC.CS(=O)(=O)O (centres undefined) [DOXAZOSIN MESYLATE]: Compound metabolized
3. CCOc1ccccc1OCCN[C@H](C)Cc1ccc(OC)c(S(N)(=O)=O)c1.Cl [TAMSULOSIN HYDROCHLORIDE]: Compound NOT metabolized
4. O=C(O)CCC(=O)O.O=C(O[C@H]1CN2CCC1CC2)N1CCc2ccccc2[C@@H]1c1ccccc1 [SOLIFENACIN SUCCINATE]: Compound NOT metabolized
5. COC1=C(OC)C(=O)C(CCCCCCCCCCO)=C(C)C1=O [IDEBENONE]: Compound metabolized
6. COc1ccc(Cc2nccc3cc(OC)c(OC)cc23)cc1OC [PAPAVERINE]: Compound NOT metabolized

The compound identified as CCOc1ccc2nc(S(N)(=O)=O)sc2c1 [ETHOXZOLAMIDE] registered its Bacterial Biotransformation at Compound NOT metabolized

The measured Bacterial Biotransformation associated with CC12CC3CC(C)(C1)CC(N)(C3)C2 [MEMANTINE] reads Compound NOT metabolized

Memo: CC(=O)CCCCn1c(=O)c2c(ncn2C)n(C)c1=O [PENTOXIFYLLINE] , reported Bacterial Biotransformation: Compound NOT metabolized

----------
- PROTOCOL_TEXT: The drug is tested on Z-005 corresponding to metagenome with ENA study accession number: PRJEB37062 and ENA sample accession number: ERS12561805 for biotransformation under anaerobic condition. The drug concentrations were measured over 9 timepoints collected between 0 and 24 hours of incubation by liquid-chromatography-coupled mass spectrometry (LC–MS)
- STUDY_CONDITIONS: 2 µM
MEASURE: Bacterial Biotransformation

Some solved entries appear below for comparison.
1) N#Cc1ccc2[nH]cc(CCCCN3CCN(c4ccc5oc(C(N)=O)cc5c4)CC3)c2c1: Compound metabolized
2) C=CC[C@@H]1/C=C(\C)C[C@H](C)C[C@H](OC)[C@H]2O[C@@](O)(C(=O)C(=O)N3CCCC[C@H]3C(=O)O[C@H](/C(C)=C/[C@@H]3CC[C@@H](O)[C@H](OC)C3)[C@H](C)[C@@H](O)CC1=O)[C@H](C)C[C@@H]2OC.O: Compound NOT metabolized
3) CCOc1ccc2nc(S(N)(=O)=O)sc2c1 [ETHOXZOLAMIDE]: Compound NOT metabolized
4) CCCN(CCC)CCc1cccc2c1CC(=O)N2: Compound NOT metabolized
5) CC(C)(C)N.CCC[C@H](N[C@@H](C)C(=O)N1[C@H](C(=O)O)C[C@@H]2CCCC[C@@H]21)C(=O)OCC: Compound metabolized

The reported value for `Clc1cccc(Cl)c1N=C1NCCN1` in terms of Bacterial Biotransformation is Compound NOT metabolized

The reported Bacterial Biotransformation of the compound `CCN(CC)CCOC(=O)C1(C2CCCCC2)CCCCC1` was Compound NOT metabolized

response.value for CC(C)(C)NC(=O)[C@H]1CC[C@H]2[C@@H]3CC[C@H]4NC(=O)C=C[C@]4(C)[C@H]3CC[C@]12C [FINASTERIDE] (field: Bacterial Biotransformation) = Compound metabolized

Reported Bacterial Biotransformation of `CC(=O)OCC(CCn1cnc2cnc(N)nc21)COC(C)=O` : Compound metabolized

----------
- PROTOCOL_TEXT: The drug is tested on Z-003 corresponding to pig gut metagenome with ENA study accession number: PRJEB37062 and ENA sample accession number: ERS12561803 for biotransformation under anaerobic condition. The drug concentrations were measured over 9 timepoints collected between 0 and 24 hours of incubation by liquid-chromatography-coupled mass spectrometry (LC–MS)
- STUDY_CONDITIONS: 2 µM
MEASURE: Bacterial Biotransformation

Check out these entries, answers already filled in.
1. O=C1N=C([O-])NC1(c1ccccc1)c1ccccc1.[Na+] [PHENYTOIN SODIUM]: Compound NOT metabolized
2. CCCN(CCC)CCc1cccc2c1CC(=O)N2: Compound metabolized
3. CN(C)CCC=C1c2ccccc2COc2ccccc21 [DOXEPIN]: Compound NOT metabolized
4. CCS(=O)(=O)CCn1c([N+](=O)[O-])cnc1C: Compound metabolized
5. CCN(CC)CCOC(=O)C1(C2CCCCC2)CCCCC1: Compound NOT metabolized
6. CC(=O)CCCCn1c(=O)c2c(ncn2C)n(C)c1=O: Compound NOT metabolized
7. CC[C@H](C)C(=O)O[C@H]1CCC=C2C=C[C@H](C)[C@H](CC[C@@H]3C[C@@H](O)CC(=O)O3)[C@H]21: Compound NOT metabolized
8. C[C@H]1C[C@H]2[C@@H]3CCC4=CC(=O)C=C[C@]4(C)[C@@]3(F)[C@@H](O)C[C@]2(C)[C@@]1(O)C(=O)CO: Compound metabolized
9. Nc1nnc(-c2cccc(Cl)c2Cl)c(N)n1: Compound NOT metabolized
10. COc1ccc(/C=C/C(=O)Nc2ccccc2C(=O)O)cc1OC: Compound metabolized

Reported Bacterial Biotransformation of `CC(=O)OCC(CCn1cnc2cnc(N)nc21)COC(C)=O` : Compound metabolized

Per the record, CCN1CCCC1CNC(=O)c1cc(S(=O)(=O)CC)c(N)cc1OC (configuration not stated) [AMISULPRIDE] has Bacterial Biotransformation of Compound metabolized

----------
- STUDY_CONDITIONS: human gut metagenome, 24 h, 2 µM
MEASURE: Bacterial Biotransformation

1) COc1ccc(/C=C/C(=O)Nc2ccccc2C(=O)O)cc1OC: Compound NOT metabolized
2) COc1ccnc(C[S+]([O-])c2nc3ccc(OC(F)F)cc3[nH]2)c1OC (centres undefined): Compound metabolized
3) CC(C)(C)NC[C@H](O)COc1nsnc1N1CCOCC1.O=C(O)/C=C\C(=O)O [TIMOLOL MALEATE]: Compound NOT metabolized
4) CCCN1C[C@H](CSC)C[C@@H]2c3cccc4[nH]cc(c34)C[C@H]21.CS(=O)(=O)O [PERGOLIDE MESYLATE]: Compound NOT metabolized
5) CN(C)CCC=C1c2ccccc2COc2ccccc21 [DOXEPIN]: Compound metabolized

Record `CCc1oc2ccccc2c1C(=O)c1cc(Br)c(O)c(Br)c1` . Reported Bacterial Biotransformation: Compound metabolized

What the record says about `O=C(CCCN1CCC2(CC1)C(=O)NCN2c1ccccc1)c1ccc(F)cc1` : Bacterial Biotransformation is Compound NOT metabolized

Briefly, Bacterial Biotransformation measured for CSc1ccc2c(c1)C(N1CCN(C)CC1)Cc1ccccc1S2.O=C(O)/C=C\C(=O)O (centres undefined) : Compound NOT metabolized

Entry under test: CCOc1cc(CC(=O)N[C@@H](CC(C)C)c2ccccc2N2CCCCC2)ccc1C(=O)O [REPAGLINIDE] . Its Bacterial Biotransformation was Compound metabolized

----------
- PROTOCOL_TEXT: The drug is tested on Z-014 corresponding to rat gut metagenome with ENA study accession number: PRJEB37062 and ENA sample accession number: ERS12561814 for biotransformation under anaerobic condition. The drug concentrations were measured over 9 timepoints collected between 0 and 24 hours of incubation by liquid-chromatography-coupled mass spectrometry (LC–MS)
- STUDY_CONDITIONS: 2 µM
MEASURE: Bacterial Biotransformation

A selection of reference data follows.
1. O=C1N=C([O-])NC1(c1ccccc1)c1ccccc1.[Na+] [PHENYTOIN SODIUM]: Compound NOT metabolized
2. C[C@]12C=CC(=O)C=C1CC[C@@H]1[C@@H]2C(=O)C[C@@]2(C)[C@H]1CC[C@]2(O)C(=O)CO: Compound NOT metabolized
3. C#C[C@]1(OC(C)=O)CC[C@H]2[C@@H]3CCC4=C/C(=N/O)CC[C@@H]4[C@H]3CC[C@@]21CC [NORGESTIMATE]: Compound NOT metabolized
4. CN(CCOc1ccc(CC2SC(=O)NC2=O)cc1)c1ccccn1.O=C(O)/C=C\C(=O)O (stereo not drawn) [ROSIGLITAZONE MALEATE]: Compound NOT metabolized
5. CC12CC3CC(C)(C1)CC(N)(C3)C2 [MEMANTINE]: Compound NOT metabolized
6. CC(C)[C@H]1CC[C@H](C(=O)N[C@H](Cc2ccccc2)C(=O)O)CC1 [NATEGLINIDE]: Compound NOT metabolized
7. Nc1nc(NC2CC2)c2ncn([C@H]3C=C[C@@H](CO)C3)c2n1.Nc1nc(NC2CC2)c2ncn([C@H]3C=C[C@@H](CO)C3)c2n1.O=S(=O)(O)O [ABACAVIR SULFATE]: Compound NOT metabolized

Next, consider the following molecule.
Noted for `CCc1oc2ccccc2c1C(=O)c1cc(Br)c(O)c(Br)c1` : its Bacterial Biotransformation reads Compound NOT metabolized
